# koff per entry
biological target: T1, recombinant human PSMA (R&D, cat. no. 4234-ZN) (human, UniProt Q04609 44-750); test: Octet RED384 BLI, PSMA on sensor, VH purified from periplasmic extracts
T1 construct: Bought protein; also called rhPSMA; Recombinant PMSA
T1 sequence (Q04609 44-750 limits assumed): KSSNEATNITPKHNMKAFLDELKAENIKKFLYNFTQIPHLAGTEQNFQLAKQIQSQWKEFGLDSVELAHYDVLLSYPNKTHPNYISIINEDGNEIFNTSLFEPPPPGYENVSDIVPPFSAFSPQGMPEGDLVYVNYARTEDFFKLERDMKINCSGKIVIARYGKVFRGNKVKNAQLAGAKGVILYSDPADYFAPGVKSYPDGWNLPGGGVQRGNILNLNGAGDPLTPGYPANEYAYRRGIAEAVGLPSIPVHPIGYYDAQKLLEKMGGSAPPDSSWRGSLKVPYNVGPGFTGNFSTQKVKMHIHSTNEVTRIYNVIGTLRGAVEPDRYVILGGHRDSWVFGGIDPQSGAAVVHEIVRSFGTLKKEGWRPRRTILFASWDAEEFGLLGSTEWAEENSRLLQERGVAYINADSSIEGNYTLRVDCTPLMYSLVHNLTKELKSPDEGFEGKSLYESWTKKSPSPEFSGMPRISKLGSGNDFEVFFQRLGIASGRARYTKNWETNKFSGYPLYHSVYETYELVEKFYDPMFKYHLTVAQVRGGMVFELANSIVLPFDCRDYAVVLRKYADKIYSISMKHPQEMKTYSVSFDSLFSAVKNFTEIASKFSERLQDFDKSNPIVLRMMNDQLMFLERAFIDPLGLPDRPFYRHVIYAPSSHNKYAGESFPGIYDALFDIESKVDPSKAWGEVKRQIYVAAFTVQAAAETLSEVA

- BINDER: "single VH domain antibody 6.1 (VHH, Human single VH domain antibody (Humabody); purified via the C-terminal His-tag, residues not tied) VHH: QVQLQESGPGLVKPSQTLSLTCTVSGGSISNSGYYWSWVRQHPGKDLEWIGFIYYNGSIHYNPSLKSRVIISVDTSKNQFSLKMNSVTAADTAVYYCARDGDDYGDYLRGQGTLVTVSS"
  UNITS_SYMBOL: "s⁻¹"
  koff: 0.00365
- BINDER: "single VH domain antibody 14.1 (VHH) VHH: EVQLVESGGEVKKPGASVKVSCKASGYTFTSYDINWVRQATGQGLEWMGWMNPNSGNTGYAQKFQGRVTMTRNTSISTAYMELSSLRSEDTAVYYCARGNGPGITGTTDYWGQGTLVTVSS"
  UNITS_SYMBOL: "s⁻¹"
  koff: 0.0011
- BINDER: "single VH domain antibody 11.1 (VHH, Human single VH domain antibody (Humabody); purified via the C-terminal His-tag, residues not tied) VHH: EVQLVESGGGLVKPGGSLRLSCAASGFNLISYGMYWVRQAPGKGLEWVAVISYDGSNKNYADSVKGRFTISRDNSKNTLFLQMNSLRVEDTAVYYCAKGGNALYSSGWPDDGFDIRGQGTMVTVSS"
  UNITS_SYMBOL: "s⁻¹"
  koff: 0.00149
- BINDER: "single VH domain antibody 5.1 (VHH, Human single VH domain antibody (Humabody); purified via the C-terminal His-tag, residues not tied) VHH: QVQLVESGGGVVQPGRSLRLSCAASGFTFNNYGMHWVRQAPGKGLEWVAIISYDGNTKYYTDSVKGRFTISRDNSKNTLYLQMNSLRVEDTAVYYCAKGLWPSDVWGQGTTVTVSS"
  UNITS_SYMBOL: "s⁻¹"
  koff: 0.0091
- BINDER: "single VH domain antibody 4.1 (VHH, Human single VH domain antibody (Humabody); purified via the C-terminal His-tag, residues not tied) VHH: QVQLVESGGGVVQPGRSLRLSCVASGFPFISYGMHWVRQAPGKGREWVAVISYDGSNRYYADSVKGRFTISRDNSKNTLYLQMNSLRPEDTAVYYCAKERIFGVLTPDDFDIWGQGTTVTVSS"
  UNITS_SYMBOL: "s⁻¹"
  koff: 0.014
- BINDER: "single VH domain antibody 12.1 (VHH, Human single VH domain antibody (Humabody); purified via the C-terminal His-tag, residues not tied) VHH: QVQLVESGGGVVQPGRSLRLSCAASGFTFSNFGMHWARQAPGKGLEWVAVISYDGNSKYYADTVKGRFTISRDNSKNTLYLEMNSLRADDTAVYYCAKGLWPPMDVRGQGTTVTVSS"
  UNITS_SYMBOL: "s⁻¹"
  koff: 0.00137
